- Assay method text: qHTS assay to identify small molecule antagonists of the estrogen receptor alpha (ER-alpha) signaling pathway using the BG1 cell line (AID 743080);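 note: BG1 cells stimulated with 17beta-estradiol alongside compound; nearly all actives have a fitted effect of over 25% in size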
- Stated conditions: BG1Luc4E2 ERE-luciferase antagonist mode, luminescence; series mostly up to 70.3 µM
Records with an inconclusive call do not appear. The source made the active and inactive calls. Calls come from the whole dose curve.
Assign a class; possible classes are active, inactive

[[record]]
compound = "C=C(Nc1ccc(OCC)cc1)Nc1ccc(OCC)cc1"
label = "inactive"

[[record]]
compound = "CCC(=O)OC(OP(=O)(CCCCc1ccccc1)CC(=O)N1C[C@H](C2CCCCC2)C[C@H]1C(=O)O)C(C)C (some centres not stated)"
label = "inactive"

[[record]]
compound = "CCCCCCCCCC(=O)NO"
label = "inactive"

[[record]]
compound = "COC(=O)[C@H]1[C@H]2C[C@H]3c4[nH]c5ccccc5c4CCN3C[C@H]2CC[C@@H]1O"
label = "inactive"

[[record]]
compound = "NCCO/C=C/[C@H](N)C(=O)O"
label = "inactive"


Exercise: Any idea what this test logged for `CNC(=O)C[C@@H](N)C(=O)N[C@@H](C(=O)N[C@@H]1C(=O)N2[C@@H]1SC(C)(C)[C@@H]2C(=O)O)c1ccc(O)cc1` ?
Key: inactive

Exercise: Record request — test call for `CN[C@H]1CC[C@@H](c2ccc(Cl)c(Cl)c2)c2ccc(S(N)(=O)=O)cc21`
Key: active

---

- Assay method text: qHTS assay to identify small molecule antagonists of the thyroid receptor (TR) signaling pathway - cell viability counter screen (AID 743064); note: nearly all actives have a fitted effect of over 50% in size
- Stated conditions: GH3.TRE-Luc viability, CellTiter-Fluor, 24 h; series mostly up to 70.3 µM
Records with an inconclusive call do not appear. Calls of active or inactive are those of the source. The call rests on the fitted dose curve; in most records, active means well fitted cell-killing curve with a large enough effect in the repeat runs; inconclusive means weak or mixed curves, or effect the other way; inactive means no such curve, though single readings can be large or run the other way.
Permitted responses: active, inactive

Solved entries (count: 5):
[[record]]
compound = "OCl"
label = "inactive"

[[record]]
compound = "C(=C\\c1ccncc1)/c1ccccc1"
label = "inactive"

[[record]]
compound = "COC(=O)C(CN)c1c[nH]c2ccc(OC)cc12 (configuration not stated)"
label = "inactive"

[[record]]
compound = "O=C(O)c1ccc(NC2OC[C@@H](O)[C@H](O)[C@H]2O)cc1 (some centres not stated)"
label = "inactive"

[[record]]
compound = "CC[C@H]1OC(=O)C[C@@H](O)[C@H](C)[C@@H](O[C@@H]2O[C@H](C)[C@@H](O[C@H]3C[C@@](C)(O)[C@@H](O)[C@H](C)O3)[C@H](N(C)C)[C@H]2O)[C@@H](CC=O)C[C@@H](C)C(=O)/C=C/C(C)=C/[C@@H]1CO[C@@H]1O[C@H](C)[C@@H](O)[C@@H](OC)[C@H]1OC"
label = "inactive"


Exercise: How was `COc1cc2c(c(OC)c1OC)-c1c(cc3c(c1OC)OCO3)C[C@@H](C)[C@](C)(O)C2` classified in this test?
Key: inactive

Exercise: Record lookup: outcome of this test for `NC(=O)CC[C@@H]1NC(=O)[C@H](Cc2ccccc2)NC(=O)[C@H](Cc2ccc(O)cc2)NC(=O)[C@@H](N)CSSC[C@@H](C(=O)N2CCC[C@H]2C(=O)N[C@@H](CCCN=C(N)N)C(=O)NCC(N)=O)NC(=O)[C@H](CC(N)=O)NC1=O` ?
Key: inactive

Exercise: GET /call?item= `CCCCCCCCCCCCCCCC(=O)OC[C@H](COP(=O)([O-])OCC[N+](C)(C)C)OC(=O)CCCCCCCCCCCCCCC` returns the recorded outcome of this test.
Key: inactive

Exercise: What call does the record list for `NS(=O)(=O)c1cc(Cl)c(Cl)c(S(N)(=O)=O)c1` ?
Key: inactive

Exercise: Each compound tested received a call. Report the one for C=CC1=C(C(=O)O)N2C(=O)[C@@H](NC(=O)/C(=N/OCC(=O)O)c3csc(N)n3)[C@H]2SC1 (stereo in doubt) .
Key: inactive

Exercise: For CC(C)[N+]1(C)[C@@H]2CC[C@H]1CC(OC(=O)C(CO)c1ccccc1)C2 (some centres not stated) , what call appears in the results of this test?
Key: inactive

Exercise: What did this assay record as the result for `Oc1ccc(Cl)c2c1CCC2` ?
Key: inactive

Exercise: Short answer needed: outcome of this test for C=CC(N)CCC(=O)O (configuration not stated) ?
Key: inactive

Exercise: For this compound, state the assay outcome: O=C(O)/C=C/C(O)c1ccc(Cl)cc1 (configuration not stated)
Key: inactive

---

- Assay method text: qHTS assay for identifying genotoxic compounds that show differential cytotoxicity against isogenic chicken DT40 cell lines with known DNA damage response pathways - Rad54/Ku70 mutant cell line (AID 743015); note: nearly all actives have a fitted effect of over 60% in size
- Stated conditions: DT40 Rad54/Ku70 mutant viability, CellTiter-Glo, 40 h; series mostly up to 66.8 µM
Results filed as inconclusive are left out. Calls of active or inactive are those of the source. Calls come from the whole dose curve; as a rule, active = well fitted cell-killing curve with a large enough effect in the repeat runs; inconclusive = weak or mixed curves; inactive = no such curve, though single readings can be large or run the other way.
# output must be one of 1.0 (active), 0.0 (inactive)

Consider the worked cases shown below.
[[record]]
compound = "COC1=C(OC)C(=O)C(C/C=C(\\C)CC/C=C(\\C)CC/C=C(\\C)CC/C=C(\\C)CC/C=C(\\C)CC/C=C(\\C)CC/C=C(\\C)CC/C=C(\\C)CC/C=C(\\C)CCC=C(C)C)=C(C)C1=O"
label = 0.0

[[record]]
compound = "C[C@H](O)CN(C)C"
label = 0.0

[[record]]
compound = "O=C(O)C[C@H](O)C[C@H](O)/C=C/c1c(C2CC2)nc2ccccc2c1-c1ccc(F)cc1"
label = 1.0

[[record]]
compound = "C[C@H](NCCc1ccc(O)cc1)[C@H](O)c1ccc(O)cc1"
label = 0.0

[[record]]
compound = "O=C(CCN1CCC(c2ccccc2)C1)c1ccc2c(c1)OCCO2 (configuration not stated)"
label = 1.0

[[record]]
compound = "NC(=O)[C@@H]1CCCN1C(=O)[C@H](Cc1cnc[nH]1)NC(=O)[C@@H]1CCC(=O)N1"
label = 0.0


Exercise: Call for entry `NC(=O)CC[C@@H]1NC(=O)[C@H](Cc2ccccc2)NC(=O)[C@H](Cc2ccc(O)cc2)NC(=O)[C@@H](N)CSSC[C@@H](C(=O)N2CCC[C@H]2C(=O)N[C@@H](CCCN=C(N)N)C(=O)NCC(N)=O)NC(=O)[C@H](CC(N)=O)NC1=O` :
Key: 0.0

Exercise: Name the outcome recorded for `NCCCC(=O)O` in the assay.
Key: 0.0

Exercise: Hello, I am checking results. What call was entered for `O=C(O)/C=C/C(=O)Nc1ccc(S(=O)(=O)Nc2nccs2)cc1` ?
Key: 0.0

Exercise: Kindly provide the recorded test outcome for the following compound: `O=P(O)(O)CP(=O)(O)O`
Key: 0.0

Exercise: What classification did `CC[C@H]1OC(=O)[C@H](C)C(=O)[C@H](C)[C@@H](O[C@@H]2O[C@H](C)C[C@H](N(C)C)[C@H]2O)[C@](C)(OC)C[C@@H](C)C(=O)[C@H](C)[C@H]2N(CCCCn3cnc(-c4cccnc4)c3)C(=O)O[C@]12C` end up with in this test?
Key: 1.0

Exercise: GET /call?item= CC12CCC(C[N+](C)(CCC[N+](C)(C)C)C1)C2(C)C (configuration not stated) returns the recorded outcome of this test.
Key: 0.0

---

- System name: Luciferin 4-monooxygenase (Photinus pyralis)
- Assay method text: qHTS assay to identify small molecule inhibitors of firefly luciferase (AID 1224835); note: nearly all actives have a fitted effect of over 25% in size
- Stated conditions: purified P. pyralis luciferase, luminescence inhibition; series mostly up to 115 µM
Inconclusive results are not listed. Activity calls are given as the source filed them. Calls come from the whole dose curve; as a rule, active = well fitted inhibition curve with a large enough effect in the repeat runs; inconclusive = weak or mixed curves; inactive = flat fitted curve, though single readings scatter.
// one of active, inactive, no free text

Exercise: Which result was noted for this compound in the test: `CCCCCCCCSCc1cc(C)c(O)c(CSCCCCCCCC)c1`
Key: inactive

Exercise: I'd appreciate the recorded outcome for `Cc1ccc(S(=O)(=O)C(I)I)cc1` from this test.
Key: active

Exercise: Please let me know the test result on file for CCCCCCCCCCCCCCCCC(C(=O)O)C(O)(CC(=O)O)C(=O)O (stereo unspecified) .
Key: inactive

---

- Assay method text: A CellTox Green Cytotoxicity Assay to monitor cytotoxicity in HEK293 cells - 40 hour (AID 1224871); note: nearly all actives have a fitted effect of over 45% in size
- Stated conditions: CellTox Green fluorescence; series mostly up to 76.8 µM
Results filed as inconclusive are left out. Calls of active or inactive are those of the source. Calls come from the whole dose curve; as a rule, active = well fitted activation curve with a large enough effect in the repeat runs; inconclusive = weak or mixed curves; inactive = flat fitted curve, though single readings scatter.
Quantity kind: outcome

[[record]]
smiles_repr = "CC1(C)[C@H]2CC[C@]1(C)C(=O)C2"
experimental_value = "inactive"

[[record]]
smiles_repr = "CC(C)C(=O)C(C)C"
experimental_value = "inactive"

[[record]]
smiles_repr = "COc1cc(OC)nc(NC(=O)NS(=O)(=O)Nc2ccccc2C(=O)N(C)C)n1"
experimental_value = "inactive"


---

- Assay method text: qHTS assay to identify small molecule antagonists of the androgen receptor (AR) signaling pathway - cell viability counter screen (AID 743033; note: nearly all actives have a fitted effect of over 45% in size)
- Stated conditions: AR-bla HEK293 viability, CellTiter-Glo luminescence, 16 h; series mostly up to 58.5 µM
Results filed as inconclusive are left out. Active and inactive are the calls of the source. Calls come from the whole dose curve; as a rule, active = well fitted cell-killing curve with a large enough effect in the repeat runs; inconclusive = weak or mixed curves; inactive = no such curve, though single readings can be large or run the other way.
Outcome field: choose from active, inactive

[[record]]
compound = "CCc1ncnc2cc(OC)c(OC)cc12"
label = "inactive"

[[record]]
compound = "Cc1cc(Br)ccc1NC(=O)CCl"
label = "active"

[[record]]
compound = "CO/N=C(\\C(=O)N[C@@H]1C(=O)N2C(C(=O)O)=C(C[N+]3(C)CCCC3)CS[C@H]12)c1csc(N)n1"
label = "inactive"

[[record]]
compound = "C[C@H](O)CN(C)C"
label = "inactive"


Exercise: What did the test return for `C/C=C/C1=C(C(=O)O)N2C(=O)[C@@H](NC(=O)[C@H](N)c3ccc(O)cc3)[C@H]2SC1` ?
Key: inactive

Exercise: // outcome(item) with item = `N[C@@H](Cc1ccc(O)c(O)c1)C(=O)O`
Key: inactive

Exercise: Which result was noted for this compound in the test: `CCCCCCCCCCCCN1CCCC1=O`
Key: inactive

Exercise: What did the test return for `O=C(CCCCCCCCc1cccnc1)N1CCC(C=C(c2ccccc2)c2ccccc2)CC1` ?
Key: inactive

Exercise: Assay result, entry `NCCO/C=C/[C@H](N)C(=O)O` — outcome?
Key: inactive

Exercise: What is the recorded call for this compound in the test? `NC(N)=NCCCCN=C(N)N`
Key: inactive

Exercise: GET /call?item= `NC(=O)[C@@H]1CCCN1C(=O)[C@H](Cc1cnc[nH]1)NC(=O)[C@@H]1CCC(=O)N1` returns the recorded outcome of this test.
Key: inactive

Exercise: Which outcome did this test record for the compound CC(C)[N+]1(C)[C@@H]2CC[C@H]1CC(OC(=O)C(CO)c1ccccc1)C2 (some centres not stated) ?
Key: inactive

Exercise: Per the records of this test, what outcome belongs to C=CC1=C(C(=O)O)N2C(=O)[C@@H](NC(=O)/C(=N\O)c3csc(N)n3)[C@H]2SC1 (stereo in doubt) ?
Key: inactive

Exercise: Could you please tell me the result logged for `CCCCCCCCCC[N+](C)(CCCCCCCCCC)CCC[Si](OC)(OC)OC` in this assay?
Key: active

Exercise: Short answer needed: outcome of this test for `COc1ccc(/C=C/C(=O)Nc2ccccc2C(=O)O)cc1OC` ?
Key: inactive

Exercise: Tell me the recorded outcome of this test for `Cc1cc(=O)c(C(=O)N[C@@H](C(=O)N[C@@H]2C(=O)N3C(C(=O)O)=C(CSc4nnnn4C)CS[C@H]23)c2ccc(O)cc2)c[nH]1` .
Key: inactive

Exercise: Assay outcome for `Cc1ccc(Cl)c(N)c1Cl` : what was it?
Key: inactive
